Just for reference, ChEMBL document CHEMBL1131993 is where these values come from.

# System: Neuronal acetylcholine receptor (Rattus norvegicus) (UniProt P04757+P09483+P12389+P12390+P12392+P43144+Q9JLB5+P12391+P43143+P20420+Q05941)
# Test Method Notes: Ability to displace [3H]cytisine binding to nicotinic receptor in synaptic membrane fractions from rat cerebral cortices at a concentration of 10 uM.
# Assay type: cell membranes
Outcome Measure: inhibition (%)
Hi! Could you send only the number? It should be in %, unit omitted.

[in] Name the reported inhibition value associated with the compound `N#Cc1ccc(-c2cc(/C=C3/CN4CCC3CC4)on2)cc1`
[out] 92

[in] Name the reported inhibition value associated with the compound `COc1ccc(-c2cc(/C=C3\CN4CCC3CC4)on2)cc1`
[out] 25

[in] Name the reported inhibition value associated with the compound COc1ccc(COc2ccc(-c3cc(/C=C4/CN5CCC4C5)on3)cc2OCc2ccc(OC)cc2)cc1 (stereo not given)
[out] 0

[in] Name the reported inhibition value associated with the compound `N#Cc1ccc(-c2cc(/C=C3\CN4CCC3CC4)on2)cc1`
[out] 83

[in] Name the reported inhibition value associated with the compound `COc1ccc(-c2cc(/C=C3\CN4CCC3CC4)on2)cc1OC`
[out] 58

[in] Name the reported inhibition value associated with the compound COc1ccc(COc2ccc(-c3cc(/C=C4/CN5CCC4C5)on3)cc2)cc1 (stereo not given)
[out] 0

[in] Name the reported inhibition value associated with the compound `CC(C)(C)OC(=O)Nc1ccc(-c2cc(/C=C3/CN4CCC3CC4)on2)cc1`
[out] 43

[in] Name the reported inhibition value associated with the compound `COc1ccc(-c2cc(/C=C3/CN4CCC3CC4)on2)cc1OC`
[out] 90

[in] Name the reported inhibition value associated with the compound `C(=C1\CN2CCC1CC2)/c1cc(-c2ccccc2)no1`
[out] 48

[in] Name the reported inhibition value associated with the compound `COc1ccc(COc2ccc(-c3cc(/C=C4\CN5CCC4CC5)on3)cc2OCc2ccc(OC)cc2)cc1`
[out] 0

[in] Name the reported inhibition value associated with the compound COc1ccc(COc2ccc(-c3cc(/C=C4\CN5CCC4C5)on3)cc2OCc2ccc(OC)cc2)cc1 (stereo not given)
[out] 0

[in] Name the reported inhibition value associated with the compound `COc1ccc(COc2ccc(-c3cc(/C=C4\CN5CCC4CC5)on3)cc2)cc1`
[out] 0

[in] Name the reported inhibition value associated with the compound `CC(C)(C)OC(=O)Nc1ccc(-c2cc(/C=C3\CN4CCC3CC4)on2)cc1`
[out] 64

[in] Name the reported inhibition value associated with the compound `Fc1ccc(-c2cc(/C=C3/CN4CCC3CC4)on2)cc1`
[out] 19

[in] Name the reported inhibition value associated with the compound Oc1ccc(-c2cc(/C=C3/CN4CCC3C4)on2)cc1 (stereo not given)
[out] 81

###

# System: Muscarinic acetylcholine receptor M2 (Homo sapiens)
# Test Method Notes: Ability to displace [3H]N-methylscopolamine binding to M2 human recombinant muscarinic receptor in CHO cells at concentration 1 uM
# Assay type: cell-based
Use 10% as the dividing line for inhibition, with the line itself on the Satisfied side and lower values as Not satisfied.

[in] Please check the record `COc1ccc(-c2cc(/C=C3/CN4CCC3CC4)on2)cc1OC` and state if its inhibition is at or above 10%.
[out] Satisfied

[in] Please check the record `C(=C1/CN2CCC1CC2)/c1cc(-c2ccccc2)no1` and state if its inhibition is at or above 10%.
[out] Not satisfied

[in] Please check the record `N#Cc1ccc(-c2cc(/C=C3/CN4CCC3CC4)on2)cc1` and state if its inhibition is at or above 10%.
[out] Not satisfied

[in] Please check the record Nc1ccc(-c2cc(/C=C3/CN4CCC3C4)on2)cc1 (stereo not drawn) and state if its inhibition is at or above 10%.
[out] Not satisfied

[in] Please check the record `COc1ccc(COc2ccc(-c3cc(/C=C4\CN5CCC4CC5)on3)cc2OCc2ccc(OC)cc2)cc1` and state if its inhibition is at or above 10%.
[out] Satisfied

[in] Please check the record COc1ccc(COc2ccc(-c3cc(/C=C4/CN5CCC4C5)on3)cc2OCc2ccc(OC)cc2)cc1 (stereo not drawn) and state if its inhibition is at or above 10%.
[out] Satisfied

[in] Please check the record `Nc1ccc(-c2cc(/C=C3/CN4CCC3CC4)on2)cc1` and state if its inhibition is at or above 10%.
[out] Not satisfied

[in] Please check the record Oc1ccc(-c2cc(/C=C3\CN4CCC3C4)on2)cc1O (stereo not drawn) and state if its inhibition is at or above 10%.
[out] Not satisfied

[in] Please check the record Oc1ccc(-c2cc(/C=C3/CN4CCC3C4)on2)cc1O (stereo not drawn) and state if its inhibition is at or above 10%.
[out] Not satisfied

[in] Please check the record `CC(C)(C)OC(=O)Nc1ccc(-c2cc(/C=C3\CN4CCC3CC4)on2)cc1` and state if its inhibition is at or above 10%.
[out] Satisfied

[in] Please check the record `COc1ccc(COc2ccc(-c3cc(/C=C4/CN5CCC4CC5)on3)cc2OCc2ccc(OC)cc2)cc1` and state if its inhibition is at or above 10%.
[out] Satisfied

[in] Please check the record COc1ccc(COc2ccc(-c3cc(/C=C4\CN5CCC4C5)on3)cc2OCc2ccc(OC)cc2)cc1 (stereo not drawn) and state if its inhibition is at or above 10%.
[out] Satisfied
